Where these numbers come from: patent US20080227763A1

methodDescription: Solubility of nomegestrol acetate in solvent mixtures
Assay type: physicochemical
runParameters: aqueous-alcoholic solvent mixture, aqueous with cosolvent or surfactant or cyclodextrin, aqueous-alcoholic mixture, 8% propyleneglycol, 0% Transcutol®; read-out: Solubility of nomegestrol acetate
propertyName: solubility

Query :: Please report the recorded solubility for CC(=O)O[C@]1(C(C)=O)CC[C@H]2[C@@H]3C=C(C)C4=CC(=O)CC[C@@H]4[C@H]3CC[C@@]21C [nomegestrol acetate] .
Result :: 7700 µg/mL

----------
methodDescription: Solubility of nomegestrol acetate in solvent mixtures
Format: physicochemical
runParameters: aqueous-alcoholic solvent mixture, aqueous with cosolvent or surfactant or cyclodextrin, aqueous-alcoholic mixture, 0% propyleneglycol, 3% Vitamin E TPGS; read-out: Solubility of nomegestrol acetate
propertyName: solubility (µg/mL)
Report as a plain number; the unit µg/mL is understood.

Query :: Please report the recorded solubility for CC(=O)O[C@]1(C(C)=O)CC[C@H]2[C@@H]3C=C(C)C4=CC(=O)CC[C@@H]4[C@H]3CC[C@@]21C [nomegestrol acetate] .
Result :: 7650
